- STUDY_TARGET: rat TRPV1 (Rattus norvegicus (Rat))
- Sequence (O35433 whole entry): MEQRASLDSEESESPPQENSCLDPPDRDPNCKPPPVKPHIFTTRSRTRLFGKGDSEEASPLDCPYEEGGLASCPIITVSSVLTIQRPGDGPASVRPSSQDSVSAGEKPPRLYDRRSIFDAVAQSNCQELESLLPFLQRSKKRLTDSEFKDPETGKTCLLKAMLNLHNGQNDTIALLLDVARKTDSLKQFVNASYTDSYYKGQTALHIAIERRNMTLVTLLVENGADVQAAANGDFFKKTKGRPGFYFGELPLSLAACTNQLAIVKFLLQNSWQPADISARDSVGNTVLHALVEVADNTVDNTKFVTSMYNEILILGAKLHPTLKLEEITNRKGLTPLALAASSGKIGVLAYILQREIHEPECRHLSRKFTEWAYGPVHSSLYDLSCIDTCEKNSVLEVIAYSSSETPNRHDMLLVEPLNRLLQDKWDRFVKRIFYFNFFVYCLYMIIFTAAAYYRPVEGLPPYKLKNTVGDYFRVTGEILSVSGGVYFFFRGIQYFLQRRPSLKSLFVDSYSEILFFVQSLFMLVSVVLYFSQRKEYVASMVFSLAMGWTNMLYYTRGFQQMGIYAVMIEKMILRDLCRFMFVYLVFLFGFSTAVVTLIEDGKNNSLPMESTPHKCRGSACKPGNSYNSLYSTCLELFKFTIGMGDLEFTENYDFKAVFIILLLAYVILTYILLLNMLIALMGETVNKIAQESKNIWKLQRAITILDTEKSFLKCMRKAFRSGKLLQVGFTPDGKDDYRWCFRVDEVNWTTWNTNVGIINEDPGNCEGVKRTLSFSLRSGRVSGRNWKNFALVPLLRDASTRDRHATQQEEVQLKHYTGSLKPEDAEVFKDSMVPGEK
- RECORDED_CONDITIONS: read-out: Rat IC50
With a cut-off of 200 nM, any IC50 strictly below it is called Satisfied; any IC50 meeting it or above is called Not satisfied.

CC(O)CSc1nc2c(c(Nc3ccc(S(=O)(=O)C(F)(F)F)cc3)n1)CCN(c1ncccc1C(F)(F)F)CC2 (stereo not shown) = Satisfied

Switching to the query record.
Input line: Report whether reported IC50 is lower than 200 nM (strictly) for CC(C)c1nc2c(c(NCCc3c(Cl)cccc3Cl)n1)CCN(c1ncccc1C(F)(F)F)CC2
Output line: Not satisfied

Value source: patent US9422293B2
